Data origin, for the record: patent US12581252B2

Below: a set of entries, each annotated with reported IC50.
experiment: cells; settings: Homo sapiens, MCF-10A, read-out: MCF10A IC50
Measure name: IC50

>>> df
                                   molecule  measure_name  value_reported
0  O=C(Nc1cc(-c2cn[nH]c2)cc2c1[C@H](c1cc(F)ccc1Cl)NC2=O)c1cc(F)cc(C(F)(F)F)c1          IC50          < 1 µM
1  O=C1N[C@H](c2cc(F)ccc2Cl)c2c(NC(=O)N3C[C@@](O)(C(F)(F)F)c4cc(F)ccc43)cc(Cl)nc21 (single isomer, unassigned)          IC50          < 1 µM
2  Cc1ccccc1[C@@H]1NC(=O)c2cccc(NC(=O)c3csc4ccccc34)c21          IC50       1 to 5 µM
